The measured values listed here are drawn from PubChem BioAssay (NCI).

compounds and their reported TGI
System: NCI-H460 lung
Test: NCI tumour cell line growth inhibition, 48 h
assay.endpoint: TGI

>>> observed_value("CC(=O)C1C(=O)C(=O)N(c2ccc([N+](=O)[O-])cc2Cl)C1=O (stereo not drawn)")
"> 100 µM"
>>> observed_value("COc1ccc(CCN2CCOCC2)cc1")
"> 100 µM"
>>> observed_value("O=C(O)C1=C(Cl)c2ccccc2S1(=O)=O")
"> 100 µM"
>>> observed_value("O=C(O)C1C2CCC(C2)C1c1ccccc1 (stereo not drawn)")
"> 100 µM"
>>> observed_value("CCCCCCCCCCC(CN(CC)CC)C(O)c1ccccc1 (stereo not drawn)")
"3.5 µM"
>>> observed_value("O=C(Nc1cc([N+](=O)[O-])cc([N+](=O)[O-])c1)OC1C2CCC1C1OC1C2 (stereo not drawn)")
"> 50 µM"
>>> observed_value("CCCCCCCCCCCCCCCCCCOCC1(COP(=O)([O-])OCC[N+](C)(C)C)CCCO1 (stereo not drawn)")
"3.23 µM"
>>> observed_value("CCNC(=O)CCCCC(=O)c1c(C)[nH]c(/C=C2\\N=C(c3ccc[nH]3)C=C2OC)c1C")
"4.19 µM"
>>> observed_value("COC(=O)NN=C1C(C)(C)C(=NNC(=O)OC)C1(C)C")
"> 100 µM"
>>> observed_value("Clc1ccc2c(NCCN3CCN(c4ccnc(N5CCCC5)n4)CC3)ccnc2c1")
"10.1 µM"
>>> observed_value("CNc1nc(=O)c(C#N)c(-c2ccc(C)cc2)s1")
"> 100 µM"
>>> observed_value("S=C1NC2=C(COC/C2=C\\c2ccccc2Cl)C(c2ccccc2Cl)N1 (stereo not drawn)")
"> 100 µM"
>>> observed_value("Cc1ccc(C(=O)/C=C/N2CCN(c3cccc(C(F)(F)F)c3)CC2)cc1")
"47.8 µM"
>>> observed_value("CC1(C)CC(=O)C2=C(C1)N(c1ccccc1)C1(O)C=CC(=O)C3=C(O)c4ccccc4C(=O)C321 (stereo not drawn)")
"83.9 µM"
>>> observed_value("CCOC(=O)CCc1c(C)c2c(O)cc(O)cc2oc1=O")
"> 100 µM"
>>> observed_value("C/C(=N\\Nc1ncnc2ccccc12)c1ccccn1")
"21.2 µM"
>>> observed_value("CN(C)S(=O)(=O)c1cccc(-c2nc3sc4c(c3c(=O)[nH]2)CCCC4)c1")
"> 100 µM"
>>> observed_value("COC(=O)C1=C2CO[C@@H]3C[C@H]4C(C)(C)CCC[C@]4(C)C(=CC1)[C@]23C")
"> 100 µM"
>>> observed_value("COc1cc(CCC(=O)NS(=O)(=O)c2ccccc2)cc(OC)c1OC")
"> 100 µM"
>>> observed_value("CN(C(=O)C1CC1)C1C2CN3CCC(O2)C13 (stereo not drawn)")
"> 100 µM"
>>> observed_value("Cc1ccc(C(=O)Nc2ccccc2C(=O)N/N=C(\\c2ccccc2)c2ccccn2)cc1")
"> 100 µM"
>>> observed_value("CC(C)(C)[Si](Nc1ccccc1)(c1ccccc1)c1ccccc1")
"37.7 µM"
>>> observed_value("NC(=O)N/N=C1/CCCC/C1=C\\c1ccccc1")
"> 100 µM"

###

Below: a set of entries, each annotated with reported TGI.
Test system: MALME-3M melanoma
Assay: NCI tumour cell line growth inhibition, 48 h
assay.endpoint: TGI

>>> observed_value("CCN1CCC(O)(c2ccc(Cl)c(Cl)c2)C(C(=O)c2ccc(Cl)c(Cl)c2)C1 (stereo not drawn)")
"33.6 µM"
>>> observed_value("CC[C@@]1(O)C(=O)OCc2c1cc1n(c2=O)Cc2c-1nc1ccccc1c2/C=N\\NC(=O)C(N)=O")
"> 79.3 µM"
>>> observed_value("C=CC1=C(C)C(Cc2[nH]c(/C=c3\\[nH]/c(=C/C4=NC(=O)C(C)/C4=C\\C)c(C)c3CCC(=O)O)c(CCC(=O)OC)c2C)NC1=O (stereo not drawn)")
"69.8 µM"
>>> observed_value("CC(=O)O[C@@H]1CC2[C@@H](CCC3Cc4nc5c(nc4C[C@@]32C)CC2CC[C@@H]3C(CC[C@@]4(C)C3CC[C@@H]4C(C)CCCC(C)C)[C@@]2(C)C5)C2C[C@@H]3OC4(CCC(C)CO4)C(C)[C@@H]3[C@]21C (stereo partly drawn)")
"> 100 µM"
>>> observed_value("c1cc(-c2cnn3nc(N4CCOCC4)ccc23)nc(NC2CC2)n1")
"> 25 µM"
>>> observed_value("Cc1noc(C)c1N=Nc1ccc2nonc2c1N")
"> 100 µM"
>>> observed_value("CC1(C)N=C(/C(C#N)=[N+](/[O-])C(=O)c2ccccc2)C(C)(C)N1O")
"> 100 µM"
>>> observed_value("CCN(CC)CCNC(=O)c1cc2cc(NC(=O)c3cc4cc(NC(=O)c5cc6cc([N+](=O)[O-])ccc6[nH]5)ccc4[nH]3)ccc2[nH]1")
"> 100 µM"

###

GI50: recorded values
Test system: OVCAR-8 ovarian
Assay: NCI tumour cell line growth inhibition, 48 h
assay.endpoint: GI50

>>> observed_value("O=C1C(Cl)=C(Nc2ccc3c(c2NC2=C(Cl)C(=O)c4ccccc4C2=O)C(=O)c2ccccc2C3=O)C(=O)c2ccccc21")
"2.72 µM"
>>> observed_value("O=C1/C(=C/c2ccc(C(F)(F)F)cc2)COc2ccc(O)cc21")
"3.26 µM"
>>> observed_value("O=C(Nn1c2c(sc1=NC1CC1)C(=O)c1ccccc1C2=O)c1cc2ccc1CCc1ccc(cc1)CC2")
"2.62 µM"
>>> observed_value("Cc1sc2c(c1C)C(c1ccc(Cl)cc1)=N[C@@H](CC(=O)Nc1ccc(O)cc1)c1nnc(C)n1-2")
"2.26 µM"
>>> observed_value("c1ccc([P+](CCC[P+](c2ccccc2)(c2ccccc2)c2ccccc2)(c2ccccc2)c2ccccc2)cc1")
"10.5 µM"
>>> observed_value("COc1ccc(-c2cc3nccn3c(Nc3ncccc3C(N)=O)n2)cc1OC")
"0.955 µM"

###

System: HT29 colon
Experiment: NCI tumour cell line growth inhibition, 48 h
Quick reference for TGI among some molecules
assay.endpoint: TGI

>>> observed_value("CC1=NN(c2cccc(Cl)c2)C2(C1)SCC(=O)N2c1nc2ccccc2s1 (stereo not given)")
"63.8 µM"
>>> observed_value("CO[C@H]1/C=C/C[C@H](C)[C@@H](C)S(=O)(=O)NC(=O)c2ccc3c(c2)N(C[C@@H]2CC[C@H]21)C[C@@]1(CCCc2cc(Cl)ccc21)CO3")
"5.16 µM"
>>> observed_value("COc1ccc(Cn2cc3c(c2-c2ccccc2)CCc2cncnc2-3)cc1")
"12.9 µM"
>>> observed_value("CCOc1ccc(C(c2c(O)c3ccccc3oc2=O)c2c(O)c3ccccc3oc2=O)cc1")
"> 100 µM"
>>> observed_value("Cc1ccc(-c2nc3n(c2/C=N\\N=C(N)N)CCS3)cc1")
"27.3 µM"

###

Recorded GI50 values for a group of molecules are listed next.
System: A549 NSCLC
Assay: NCI tumour cell line growth inhibition, 48 h
assay.endpoint: GI50

>>> observed_value("CC(=O)[CH-]C(=O)c1ccccc1.CC(=O)[CH-]C(=O)c1ccccc1.CC12CC3(C)CC(C)(C1)CC([O-])(C2)C3.CC[O-].[Ti+4]")
"29.5 µM"
>>> observed_value("COc1cc(C(=O)/C=C/c2c(-c3cccs3)nc3ccccn23)cc(OC)c1OC")
"2.04 µM"
>>> observed_value("CCNC(=O)CCCCC(=O)c1c(C)[nH]c(/C=C2\\N=C(c3ccc[nH]3)C=C2OC)c1C")
"4.72 µM"
>>> observed_value("C=CC1=C(C)C(Cc2[nH]c(/C=c3\\[nH]/c(=C/C4=NC(=O)C(C)/C4=C\\C)c(C)c3CCC(=O)O)c(CCC(=O)OC)c2C)NC1=O (centres undefined)")
"40.2 µM"

###

Test system: 786-0 renal
Assay: NCI tumour cell line growth inhibition, 48 h
GI50 by entry:
assay.endpoint: GI50

>>> observed_value("Cc1cc(S(=O)(=O)Nc2nc3ccsc3c(=O)n2Cc2ccccc2)c(S)cc1Cl")
"32.2 µM"
>>> observed_value("OCCCCC#Cc1ccccc1C#Cc1cccs1")
"14.3 µM"
>>> observed_value("CN(C)CCN1C(=O)c2cccc3c(-c4ccc5ncn(C6CCCCC6)c5c4)ccc(c23)C1=O")
"1.59 µM"
>>> observed_value("O=C1/C(=C/c2ccc(C(F)(F)F)cc2)COc2ccc(O)cc21")
"1.91 µM"
>>> observed_value("O=C1C(Nc2cccc(O)c2)=C(Sc2ccc(Cl)cc2)C(=O)N1Cc1ccccc1")
"17.8 µM"

###

TGI values, listed per item
Tested on: MDA-MB-435
Experiment: NCI tumour cell line growth inhibition, 48 h
assay.endpoint: TGI (µM)

>>> observed_value("O=C(/C=C/c1ccsc1)c1ccc(Cl)s1")
79.9
>>> observed_value("CC1=NN(c2cccc(Cl)c2)C2(C1)SCC(=O)N2c1nc2ccccc2s1 (stereo unspecified)")
79.7
>>> observed_value("CCN1CCN(c2nc(C)cc(N(CCCNc3ccnc4cc(Cl)ccc34)Cc3ccco3)n2)CC1")
3.24
>>> observed_value("COc1ccc(Cn2cc3c(c2-c2ccccc2)CCc2cncnc2-3)cc1")
11.8
>>> observed_value("Cc1[nH]ccc2cc3nc4ccccc4c3cc12")
12.7
>>> observed_value("COc1ccc(Cn2c3c(c4c(O)cccc42)C(=O)c2ccccc2-3)cc1")
30.8
>>> observed_value("c1cc(C2N3CCCN2CC3)ccn1 (stereo unspecified)")
89.2
>>> observed_value("COc1cc(OC)c(NC2=NCCO2)cc1Cl")
38.4
>>> observed_value("Cc1ccc(-c2nc3n(c2/C=N\\N=C(N)N)CCS3)cc1")
28.9
>>> observed_value("CCCCc1oc2ccccc2c1C(=O)c1cc(I)c(OCCN(CC)CC)c(I)c1")
6.53
>>> observed_value("COc1cc(C(=O)/C=C/c2c(-c3cccs3)nc3ccccn23)cc(OC)c1OC")
9.52
>>> observed_value("CCCCCC/C=C\\CCCCCCCCCc1c(O)c(OC)cc(O)c1CN(C)C")
20
>>> observed_value("CC1(C)OCC(C2OC(=O)C(OCc3ccccc3)=C2OCc2ccccc2)O1 (stereo unspecified)")
79.4
>>> observed_value("O=S(=O)(Nc1nc(-c2cc(O)c(O)c(O)c2)cs1)c1ccc(Cl)cc1Cl")
56.9
>>> observed_value("O=C1/C(=C/c2ccc(C(F)(F)F)cc2)COc2ccc(O)cc21")
6.54
>>> observed_value("C[C@@H]1CCC2[C@@H](C)[C@H](OC(=O)CCC(=O)NCCNC(=O)Cc3cc(=O)oc4cc(N(C)C)ccc34)O[C@@H]3O[C@]4(C)CC[C@@H]1C23OO4 (stereo partly specified)")
16.8
>>> observed_value("Cc1cc(S(=O)(=O)Nc2nc3ccsc3c(=O)n2Cc2ccccc2)c(S)cc1Cl")
91.6
>>> observed_value("CCOC(=O)c1cn2ncnc(Oc3ccc(NC(=O)NCCN(CC)CC)c(Cl)c3)c2c1C")
3.51
>>> observed_value("O=C(Nn1c2c(sc1=NC1CC1)C(=O)c1ccccc1C2=O)c1cc2ccc1CCc1ccc(cc1)CC2")
3.23
